- testedSystem: T1, human ROR1 expressed on cells (MDA-MB-231, Jeko-1, PA-1, HCC1187) (human, UniProt Q01973 30-937)
- T1 construct: also called hROR1
- T1 sequence (Q01973 30-937 limits assumed): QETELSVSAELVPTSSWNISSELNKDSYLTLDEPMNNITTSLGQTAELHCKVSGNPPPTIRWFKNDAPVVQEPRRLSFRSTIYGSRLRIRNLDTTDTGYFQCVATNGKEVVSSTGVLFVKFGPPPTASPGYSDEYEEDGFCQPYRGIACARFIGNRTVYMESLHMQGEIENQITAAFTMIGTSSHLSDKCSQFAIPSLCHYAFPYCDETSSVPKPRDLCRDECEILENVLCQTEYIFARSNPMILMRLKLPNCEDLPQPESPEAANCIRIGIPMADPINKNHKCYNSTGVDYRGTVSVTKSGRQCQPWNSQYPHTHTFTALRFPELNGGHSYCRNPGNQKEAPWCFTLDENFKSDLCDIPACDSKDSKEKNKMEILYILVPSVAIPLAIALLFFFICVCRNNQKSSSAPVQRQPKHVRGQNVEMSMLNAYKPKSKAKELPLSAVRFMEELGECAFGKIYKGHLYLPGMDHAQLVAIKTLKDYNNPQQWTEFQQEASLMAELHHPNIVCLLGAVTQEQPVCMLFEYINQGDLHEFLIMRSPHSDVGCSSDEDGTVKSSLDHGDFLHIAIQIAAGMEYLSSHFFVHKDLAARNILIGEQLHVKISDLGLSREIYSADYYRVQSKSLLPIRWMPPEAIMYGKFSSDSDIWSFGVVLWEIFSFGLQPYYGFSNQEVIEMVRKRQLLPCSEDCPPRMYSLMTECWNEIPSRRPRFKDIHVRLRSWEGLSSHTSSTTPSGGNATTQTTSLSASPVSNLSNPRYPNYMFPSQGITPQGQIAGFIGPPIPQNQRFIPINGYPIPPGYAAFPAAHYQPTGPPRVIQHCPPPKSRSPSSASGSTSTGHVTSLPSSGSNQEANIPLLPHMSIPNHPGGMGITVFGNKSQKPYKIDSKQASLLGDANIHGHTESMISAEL
- experimentalDetails: flow cytometry on Jeko-1 cells
quantityName: EC50
State the value, then name its unit.

Reference set (3 entries):
binder	EC50
YR-11 (antibody, human IgG1, kappa, V domains shown) VH: QVQLQESGPGLVKPSETLSLTCTVSGFSLTRYGVHWIRQPPGKGLEWIGVIWAGGFTNYNSALKSRVTISKDNSKNQVSLKLSSVTAADTAVYYCARRGNEYSMSYWGQGTLVTVSS VL: EIVLTQSPATLSLSPGERATLSCSASSQVSYIHWYQQKPGQAPRPWIYETSKLASGIPARFSGSGSGTDYTLTISSLEPEDFAVYYCQQWNYPLITFGQGTKLEIKR	7 ng/mL
YR-8 (antibody, human IgG1, kappa, V domains shown) VH: QVQLQESGPGLVKPSETLSLTCTVSGFSLTRYGVHWIRQPPGKGLEWLGVIWAGGFTNYNSDLKSRLTISKDNSKNQVSLKLSSVTAADTAVYYCARRGDSYSMKYWGQGTLVTVSS VL: EIVLTQSPATLSLSPGERATLSCSASSQVSYIHWYQQKPGQAPRPWIYETSKLASGIPARFSGSGSGTDYTLTISSLEPEDFAVYYCQQWNYPLITFGQGTKLEIKR	5 ng/mL
YR-10 (antibody, human IgG1, kappa, V domains shown) VH: QVQLQESGPGLVKPSETLSLTCTVSGFSLTRYGVHWIRQPPGKGLEWIGVIWAGGFTNYNSTLKSRVTISKDNSKNQVSLKLSSVTAADTAVYYCARRGNQYSMKYWGQGTLVTVSS VL: EIVLTQSPATLSLSPGERATLSCSASSQVSYIHWYQQKPGQAPRPWIYETSKLASGIPARFSGSGSGTDYTLTISSLEPEDFAVYYCQQWNYPLISFGQGTKLEIKR	10 ng/mL

Next, consider the following binder.
## Input Indicate the recorded EC50 value for this binder: humanized antibody BRHu-3 (antibody, human IgG1, kappa, V domains shown, humanized D10, human IgG1 / kappa) VH: QVQLQESGPGLVKPSETLSLTCTVSGFSLTSYGVHWIRQPPGKGLEWLGVIWAGGFTNYNSALKSRLTISKDNSKNQVSLKLSSVTAADTAVYYCARRGSSYSMDYWGQGTLVTVSS VL: EIVLTQSPATLSLSPGERATLSCSASSNVSYIHWYQQKPGQAPRPWIYEISKLASGIPARFSGSGSGTDYTLTISSLEPEDFAVYYCQQWNYPLITFGQGTKLEIKR
## Output 30 ng/mL
